Target: HLA-DRB1*07:01 (Homo sapiens, UniProt P01903+P01911, A100R/A102G/A103Q/D57E/D86V/E43K/F76Y/K127E/L162R/M171V/P40G/Q125H/Q99D/R33Q/R42Y/R54Q/S133A/S66F/T210M/V115G/Y107V/Y59L/Y89S)
Experiment: biochemical
Assay type: binding
Conditions: […]; mean of at least two independent experiments; read-out: IC50 DRB1*0701 (converted)
Where a SMILES comes first, the peptide text is derived from it. [ ]: non-standard residue; d: D form. Aib = CC(C)(N)C(=O)O
// values below are reported IC50
Give the value in nM but do not write nM after it.

# molecule, units, IC50
rows = [
    ("CC(C)C[C@H](NC(=O)[C@H](CCCCN)NC(=O)[C@H](CC(C)C)NC(=O)[C@@H](NC(=O)[C@H](CC(N)=O)NC(=O)[C@H](CCC(N)=O)NC(=O)[C@H](CCCCN)NC(=O)[C@@H](NC(=O)[C@H](Cc1ccc(O)cc1)NC(=O)C(C)(C)NC(=O)[C@@H]1CCCN1)C(C)C)[C@@H](C)O)C(=O)N[C@@H](C)C(=O)N[C@H](C(=O)O)[C@@H](C)O [Aib2] (H-P[Aib]YVKQNTLKLAT-OH)", "nM", 7700),
]

Ask: Look up IC50: CC(C)C[C@H](NC(=O)[C@H](CCCCN)NC(=O)[C@H](CC(C)C)NC(=O)[C@@H](NC(=O)[C@H](CC(N)=O)NC(=O)[C@H](CCC(N)=O)NC(=O)[C@H](CCCCN)NC(=O)[C@@H](NC(=O)C(C)(C)NC(=O)[C@H](CCCCN)NC(=O)[C@@H]1CCCN1)C(C)C)[C@@H](C)O)C(=O)N[C@@H](C)C(=O)N[C@H](C(=O)O)[C@@H](C)O [Aib3]
Reply: 460

Ask: Look up IC50: CC(C)C[C@H](NC(=O)[C@@H](NC(=O)[C@H](CC(N)=O)NC(=O)[C@H](CCC(N)=O)NC(=O)[C@H](CCCCN)NC(=O)[C@@H](NC(=O)[C@H](Cc1ccc(O)cc1)NC(=O)[C@H](CCCCN)NC(=O)[C@@H]1CCCN1)C(C)C)[C@@H](C)O)C(=O)N[C@@H](CCCCN)C(=O)N[C@@H](CC(C)C)C(=O)N(C)CC(=O)N[C@H](C(=O)O)[C@@H](C)O [Pep12]
Reply: 10

---

Biological target: HLA-DRB1*04:01 (Homo sapiens, UniProt P01903+P01911, A100K/A169T/F76Y/I96L/K127E/L162R/M171V/N62H/P40V/Q125Y/R42H/S133A/S149N/S66Y/V115G/V209L/W38E)
Construct: Human leukocyte antigen-DR molecules were immunopurified from homozygous EBV B lymphoblastoid cells; endogenous in cells
Experiment: biochemical
Type: binding
Conditions: […]; mean of at least two independent experiments; read-out: IC50 DRB1*0401
Where a SMILES comes first, the peptide text is derived from it. [ ]: non-standard residue; d: D form. Aib = CC(C)(N)C(=O)O
readout.kind: log10 IC50 (log10 of the value in nM)
Values below are the log10 of the recorded IC50, with nM as the unit.

# compound, measured.result
data = [
    ("CC(C)C[C@H](NC(=O)[C@H](CCCCN)NC(=O)[C@H](CC(C)C)NC(=O)[C@@H](NC(=O)[C@H](CC(N)=O)NC(=O)CN(CCC(N)=O)C(=O)[C@H](CCCCN)NC(=O)[C@@H](NC(=O)[C@H](Cc1ccc(O)cc1)NC(=O)[C@H](CCCCN)NC(=O)[C@@H]1CCCN1)C(C)C)[C@@H](C)O)C(=O)N[C@@H](C)C(=O)N[C@H](C(=O)O)[C@@H](C)O", 1.91),
    ("CC(C)C[C@H](NC(=O)[C@H](CCCCN)NC(=O)[C@H](CC(C)C)NC(=O)[C@@H](NC(=O)[C@H](CC(N)=O)NC(=O)[C@H](CCC(N)=O)NC(=O)[C@H](CCCCN)NC(=O)[C@@H](NC(=O)[C@H](Cc1ccc(O)cc1)NC(=O)[C@H](CCCCN)NC(=O)[C@@H]1CCCN1)C(C)C)[C@@H](C)O)C(=O)NC(C)(C)C(=O)N[C@H](C(=O)O)[C@@H](C)O", 1.51),
    ("CC(C)C[C@H](NC(=O)[C@H](CCCCN)NC(=O)[C@H](CC(C)C)NC(=O)[C@@H](NC(=O)[C@H](CC(N)=O)NC(=O)[C@H](CCC(N)=O)NC(=O)[C@H](CCCCN)NC(=O)CN(C(=O)[C@H](Cc1ccc(O)cc1)NC(=O)[C@H](CCCCN)NC(=O)[C@@H]1CCCN1)C(C)C)[C@@H](C)O)C(=O)N[C@@H](C)C(=O)N[C@H](C(=O)O)[C@@H](C)O", 1.15),
    ("CC(C)C[C@H](NC(=O)[C@@H](NC(=O)[C@H](CC(N)=O)NC(=O)[C@H](CCC(N)=O)NC(=O)[C@H](CCCCN)NC(=O)[C@@H](NC(=O)[C@H](Cc1ccc(O)cc1)NC(=O)[C@H](CCCCN)NC(=O)[C@@H]1CCCN1)C(C)C)[C@@H](C)O)C(=O)NC(C)(C)C(=O)N[C@@H](CC(C)C)C(=O)N[C@@H](C)C(=O)N[C@H](C(=O)O)[C@@H](C)O", 2.69),
]

Turning now to a further compound:
Ask: Look up log10 IC50: CC(C)C[C@H](NC(=O)[C@H](CCCCN)NC(=O)[C@H](CC(C)C)NC(=O)[C@@H](NC(=O)C(C)(C)NC(=O)[C@H](CCC(N)=O)NC(=O)[C@H](CCCCN)NC(=O)[C@@H](NC(=O)[C@H](Cc1ccc(O)cc1)NC(=O)[C@H](CCCCN)NC(=O)[C@@H]1CCCN1)C(C)C)[C@@H](C)O)C(=O)N[C@@H](C)C(=O)N[C@H](C(=O)O)[C@@H](C)O [Aib7] (H-PKYVKQ[Aib]TLKLAT-OH)
Reply: 1.65
